# targetSystem: HLA-A*0202 (human)
# conditions: remark: other sources report otherwise
pIC50: −log10 of the molar value.
# key: entry, value: pIC50

- binder: "LLSNDMCARV [peptide 1418.53, HuK2.178.V10]"
  pIC50: 9.15
- binder: "HLLSNDMCV [peptide 1418.20, HuK2.177.V9]"
  pIC50: 6.99
